Tested on: MDA-MB-231 breast cancer cells
Experiment: MTT cytotoxicity assay, MDA-MB-231 cells
Assay type: cell-based, human
Settings: 24 h incubation, MTT, average of at least three experiments (±SD)
Quick rule for you: IC50 under 2000 nM gets 1 (yes), anything else gets 0 (no).

Reference set (4 entries):
{"columns": ["molecule", "qualitative.label"],
 "data": [
  ["CN1CN2CN(C)C[P]([Ru+2]([P](c3ccccc3)(c3ccccc3)c3ccccc3)[P](c3ccccc3)(c3ccccc3)c3ccccc3)(C1)C2.O=S(=O)([O-])C(F)(F)F.c1cc[cH-]c1 [Compound 10, [RuCp(dmoPTA)(PPh3)2](CF3SO3)]", "1 (yes)"],
  ["CN1CN2C[NH+](C)C[P]([Ru+2]([P](c3ccccc3)(c3ccccc3)c3ccccc3)[P](c3ccccc3)(c3ccccc3)c3ccccc3)(C1)C2.O=S(=O)([O-])C(F)(F)F.O=S(=O)([O-])C(F)(F)F.c1cc[cH-]c1 [Compound 9, [RuCp(HdmoPTA)(PPh3)2](CF3SO3)2]", "1 (yes)"],
  ["CN1CN2C[NH+](C)C[P]([Ru+]([Cl])[P](c3ccccc3)(c3ccccc3)c3ccccc3)(C1)C2.O=S(=O)([O-])C(F)(F)F.c1cc[cH-]c1 [Compound 7, [RuClCp(HdmoPTA)(PPh3)](CF3SO3)]", "0 (no)"],
  ["C[N+]12CN3CN(C1)C[P]([Ru+]([Cl])[P](c1ccccc1)(c1ccccc1)c1ccccc1)(C3)C2.O=S(=O)([O-])C(F)(F)F.c1cc[cH-]c1 [Compound 6, [RuClCp(PPh3)(mPTA)](CF3SO3)]", "0 (no)"]
]}

Just wondering, is IC50 of CN1CN2C[NH+](C)C[P]([Ru+2]([P](c3ccccc3)(c3ccccc3)c3ccccc3)[S](C)(C)=O)(C1)C2.O=S(=O)([O-])C(F)(F)F.O=S(=O)([O-])C(F)(F)F.c1cc[cH-]c1 [Compound 8, [RuCp(DMSO-κS)(HdmoPTA)(PPh3)](CF3SO3)2] below 2000 nM?
0 (no)

----------
Listed molecules paired with reported IC50
Test system: MDA-MB-231 breast cancer cells
Assay: MTT cytotoxicity assay, MDA-MB-231 cells
Assay type: cell-based, human
Conditions: 24 h incubation, MTT, average of at least three experiments (±SD)
# output: bare number, implied unit µM

{"columns": ["molecule", "endpoint", "experimental.result"],
 "data": [
  ["[Cl][Ru+]([P]12CN3CN(CN(C3)C1)C2)[P](c1ccccc1)(c1ccccc1)c1ccccc1.c1cc[cH-]c1 [Compound 5, [RuClCp(PPh3)(PTA)]]", "IC50", 60]
]}

Let's switch to this molecule now.
MDA-MB-231 breast cancer cells / IC50 / `CN1CN2CN(C)C[P]([Ru+2]([P](c3ccccc3)(c3ccccc3)c3ccccc3)[P](c3ccccc3)(c3ccccc3)c3ccccc3)(C1)C2.O=S(=O)([O-])C(F)(F)F.[Cl][Pd][Cl].c1cc[cH-]c1` : value?
1.1
